assay: Animal PK, NCA parameters, rat; details: in vivo
propertyMeasured: bioavailability (%)
I only need the number, in %, no unit after it.

(Q) Need bioavailability of Nc1ncn(C2CC(O)C(CO)S2)c(=O)n1 (stereo not shown) [Aza-T-dCyd, 4′-Thio-5-aza-2′-deoxycytidine] , thanks.
(A) 43.2

###

experiment: Animal PK, NCA parameters, rat; details: in vivo, iv, 1 mg/kg
Recorded C0 for the following compounds
Report as: number unit

# compound, result
records = [
    ("Nc1ncn([C@H]2C[C@H](O)[C@@H](CO)O2)c(=O)n1 [decitabine, reference compound]", "0.504 µg/mL"),
]

Okay, now this compound:
(Q) Need C0 of Nc1ncn(C2CC(O)C(CO)S2)c(=O)n1 (centres unmarked) , thanks.
(A) 0.562 µg/mL

###

Recorded clearance for the following compounds
assay: Animal PK, NCA parameters, rat; settings: in vivo, iv, 1 mg/kg
I only need the number, in mL/min/kg, no unit after it.

# compound, clearance, mL/min/kg
records = [
    ("Nc1ncn(C2CC(O)C(CO)S2)c(=O)n1 (centres unmarked)", 8.83),
]

(Q) Need clearance of Nc1ncn([C@H]2C[C@H](O)[C@@H](CO)O2)c(=O)n1 [decitabine, reference compound] , thanks.
(A) 7

###

assay: Animal PK, NCA parameters, rat; settings: in vivo, iv, 1 mg/kg
propertyMeasured: half-life (h)
I only need the number, in h, no unit after it.

(Q) Need half-life of Nc1ncn(C2CC(O)C(CO)S2)c(=O)n1 (stereo not shown) [Aza-T-dCyd, 4′-Thio-5-aza-2′-deoxycytidine] , thanks.
(A) 5.01

###

experiment: Animal PK, NCA parameters, mouse; details: in vivo, iv, 1 mg/kg
propertyMeasured: Vd
Report as: number unit

# molecule, Vd
measured = [
    ("Nc1ncn([C@H]2C[C@H](O)[C@@H](CO)O2)c(=O)n1 [decitabine, reference compound]", "1.7 L/kg"),
]

Okay, now this molecule:
(Q) Need Vd of Nc1ncn(C2CC(O)C(CO)S2)c(=O)n1 (centres unmarked) , thanks.
(A) 1.9 L/kg

###

Recorded AUC(0-inf) for the following compounds
test: Animal PK, NCA parameters, dog; conditions: in vivo, iv, 0.33 mg/kg
I only need the number, in ng·h/mL, no unit after it.

# compound, resultUnits, recordedNumber
data = [
    ("Nc1ncn([C@H]2C[C@H](O)[C@@H](CO)O2)c(=O)n1 [decitabine, reference compound]", "ng·h/mL", 1080),
]

(Q) Need AUC(0-inf) of Nc1ncn(C2CC(O)C(CO)S2)c(=O)n1 (centres unmarked) , thanks.
(A) 1130

###

assay: in vivo; conditions: rat, iv, 1 mg/kg
propertyMeasured: half-life (h)
I only need the number, in h, no unit after it.

(Q) Need half-life of Nc1ncn([C@H]2C[C@H](O)[C@@H](CO)O2)c(=O)n1 [decitabine, reference compound] , thanks.
(A) 3.71

###

Test: Mouse PK (AUC)
Assay type: in vivo
Settings: in vivo, oral, 3 mg/kg; mouse, 3.0 mpk
From the text: Without wishing to be bound by theory, this is excellent efficacy at a level that is impossible to reach by the same family of cytidine-based drugs such as decitabine or azacytidine, which was conventionally used, and according to conventional reports on Aza-T-dCyd, the level corresponds to a dose of a level expected to have toxicity.
propertyMeasured: AUC (ng·h/mL)
I only need the number, in ng·h/mL, no unit after it.

(Q) Need AUC of Nc1ncn(C2CC(O)C(CO)S2)c(=O)n1 (stereo not shown) , thanks.
(A) 403

Source listed as patent US12208112B2.
